# Test system: PCP-Induced Hyperactivity Responses in Mice
# method-summary: PCP-induced hyperactivity (open field) in mice;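 note: plus means significant inhibition of PCP hyperactivity at P below 0.05 and minus means none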
# Type: in vivo
# test-parameters: 1 mg/kg Compound + PCP (5 mg/kg; i.p); male C57Bl/6J mice; vs. vehicle + PCP

- compound: "CCNC[C@@H]1OCCc2sccc21 [Compound 310]"
  assayed-target: "PCP-Induced Hyperactivity Responses in Mice"
  Total Distance Traveled (cm): "−"
- compound: "CNC[C@H]1OCCc2sccc21 [Compound 28]"
  assayed-target: "PCP-Induced Hyperactivity Responses in Mice"
  Total Distance Traveled (cm): "+"
- compound: "CNC[C@@H]1OCCc2c(C)csc21 [Compound 171]"
  assayed-target: "PCP-Induced Hyperactivity Responses in Mice"
  Total Distance Traveled (cm): "−"
- compound: "[2H]C([2H])([2H])NC[C@H]1OCCc2sccc21 [Compound 158]"
  assayed-target: "PCP-Induced Hyperactivity Responses in Mice"
  Total Distance Traveled (cm): "+"
